# Test system: HSV-1
# PROCEDURE_DETAILS: HSV-1 Antiviral Assay (Vero cells, cell viability)
# Type: cell-based
# CONDITIONS_USED: Human alphaherpesvirus 1, 96 h; Vero cells, 80 TCID50 HSV-1, 4 days, cell viability; read-out: HSV-1 EC50
pEC50: −log10 of the molar value.
Kindly state pEC50 for each of the entries shown.

(Q) Which pEC50 value belongs to Cc1nc(N2CCCCN(c3ccc(-c4ccccc4F)cc3)C2=O)sc1S(N)(=O)=O ?
(A) > 7.00

(Q) Can you check Cc1nc(N2CCCCN(c3ccc(-c4cc(F)ccc4F)cc3)C2=O)sc1S(N)(=O)=O next?
(A) > 7.00

(Q) Can you check Cc1nc(N2CCCN(c3ccc(-c4nccs4)cc3)C2=O)sc1S(N)(=O)=O next?
(A) > 7.00

(Q) Can you check Cc1nc(N2CCCN(Cc3cccc(-c4cc(F)ccc4F)c3)C2=O)sc1S(=O)(=O)NC1CC1 next?
(A) 6.00 to 7.00

(Q) Can you check CNS(=O)(=O)c1sc(N2CCCN(Cc3cccc(-c4ccccc4)c3)C2=O)nc1C next?
(A) > 7.00

(Q) Can you check Cc1nc(N2CCCN(c3ccc(-c4ncccc4F)cc3)C2=O)sc1S(N)(=O)=O next?
(A) > 7.00

(Q) Can you check Cc1nc(N2CC3(CC3)CN(c3ccc(-c4ccccc4F)cc3)C2=O)sc1S(C)(=N)=O (stereo not shown) next?
(A) 6.00 to 7.00

(Q) Can you check Cc1nc(N2CCCN(c3cccc(-c4cc(F)ccc4F)c3)C2=O)sc1S(N)(=O)=O next?
(A) 6.00 to 7.00

(Q) Can you check NS(=O)(=O)c1sc(N2CCCN(c3ccc(-c4ccccc4F)cc3)C2=O)nc1C(F)(F)F next?
(A) > 7.00

(Q) Can you check Cc1nc(N2CCCN(c3ccc(-c4cccc5scnc45)cc3)C2=O)sc1S(N)(=O)=O next?
(A) > 7.00

(Q) Can you check Cc1nc(N2CCCN(c3ccc(-c4cccc(C(F)(F)F)c4)cc3)C2=O)sc1S(N)(=O)=O next?
(A) 6.00 to 7.00

(Q) Can you check Cc1csc(-c2ccc(N3CCCN(c4nc(C)c(S(N)(=O)=O)s4)C3=O)cc2)n1 next?
(A) > 7.00

(Q) Can you check Cc1nc(N2CCCN(c3ccc(-c4cc(F)ccc4F)cc3)C2=O)sc1S(=O)(=O)NCCCO next?
(A) > 7.00

(Q) Can you check C#Cc1ccc(F)c(-c2ccc(N3CCCN(c4nc(C)c(S(N)(=O)=O)s4)C3=O)cc2)c1 next?
(A) > 7.00

(Q) Can you check Cc1nc(N2CC3(CC3)CN(c3ccc(-c4ccccc4F)cc3)C2=O)sc1[S@](C)(=N)=O (single isomer, unassigned) next?
(A) 6.00 to 7.00

(Q) Can you check Cc1nc(N2CCCN(c3ccc(-c4cccc5c4ccn5C)cc3)C2=O)sc1S(N)(=O)=O next?
(A) > 7.00

====

# System: HSV-1
# PROCEDURE_DETAILS: HSV-1 Antiviral Assay (Vero cells, cell viability)
# Type: cell-based
# CONDITIONS_USED: Human alphaherpesvirus 1, 96 h; Vero cells, 80 TCID50 HSV-1, 4 days, cell viability; read-out: HSV-1 EC50
pEC50: −log10 of the molar value.
Kindly state pEC50 for each of the entries shown.

(Q) Form field: pEC50 recorded for Cc1nc(N2CCCN(c3ccc(-c4cccc5ncccc45)cc3)C2=O)sc1S(N)(=O)=O [Compound 84] with HSV-1 (enter value)
(A) 6.00 to 7.00

(Q) Can you check Cc1nc(N2CCCN(c3ccc(-c4cc(F)ccc4F)cc3)C2=O)sc1S(N)(=O)=O [Compound 5] next?
(A) > 7.00

(Q) Can you check Cc1nc(N2CCCN(c3ccc(-c4ccncc4)cc3)C2=O)sc1S(N)(=O)=O [Compound 3] next?
(A) 6.00 to 7.00

(Q) Can you check Cc1nc(N2CCCN(c3ccc(-c4cc(Br)ccc4F)cc3)C2=O)sc1S(N)(=O)=O [Compound 25] next?
(A) > 7.00

(Q) Can you check Cc1nc(N2CCCN(c3cc(F)c(-c4ccccn4)cc3F)C2=O)sc1S(N)(=O)=O [Compound 98] next?
(A) > 7.00

(Q) Can you check Cc1nc(N2CCCN(c3ccc(-c4snc5ccccc45)cc3)C2=O)sc1S(N)(=O)=O [Compound 305] next?
(A) > 7.00

(Q) Can you check Cc1nc(N2CCCN(c3ccc(-c4cccc5cccnc45)cc3)C2=O)sc1S(N)(=O)=O [Compound 82] next?
(A) 6.00 to 7.00

(Q) Can you check Cc1nc(N2CC3(CC3)CN(c3ccc(-c4ccccc4F)cc3)C2=O)sc1[S@@](C)(=N)=O (single isomer, unassigned) [Compound 160] next?
(A) 6.00 to 7.00
